Test: Tested for inhibition against CD23 (IgE receptor) proteolysis in membranes derived from RPM18866 cells (a human B-cell line)
Record form. Attribute: IC50. Fill in for each entry.
Numeric answer only, unit µM assumed.

`O=C(C[C@@H](CCc1ccccc1)C(=O)N[C@@H](Cc1ccccc1)C(=O)NCc1ccccc1)NO` has a reported IC50 of 5

// sample `O=C(C[C@@H](CC1CCCCC1)C(=O)N[C@@H](Cc1ccccc1)C(=O)NCc1ccccc1)NO` , its IC50 was 3.7

Record summary for `O=C(C[C@H](C(=O)N[C@@H](Cc1ccccc1)C(=O)NCc1ccccc1)c1ccccc1)NO` : reported IC50 = 1.6

response.value for `O=C(C[C@@H](CC1CCCC1)C(=O)N[C@@H](Cc1ccccc1)C(=O)NCc1ccccc1)NO` (field: IC50) = 0.2

----------
Experiment: Tested for inhibition against CD23 (IgE receptor) proteolysis in membranes derived from RPM18866 cells (a human B-cell line)
pIC50: −log10 of the molar value.
Provide the recorded pIC50 for the entries that follow.

Value of measured pIC50 for the entry `C[C@H](CC(=O)NO)C(=O)N[C@@H](Cc1ccccc1)C(=O)NCc1ccccc1` : < 4.70

pIC50 recorded for this molecule, `O=C(C[C@@H](O)C(=O)N[C@@H](Cc1ccccc1)C(=O)NCc1ccccc1)NO` , is < 4.70

pIC50 measured on `O=C(C[C@H](C(=O)N[C@@H](Cc1ccccc1)C(=O)NCc1ccccc1)c1ccc(-c2ccccc2)cc1)NO` = < 4.70

Recorded pIC50 (molecule `CC(C)S[C@H](CC(=O)NO)C(=O)N[C@@H](Cc1ccccc1)C(=O)NCc1ccccc1` ): 5.10

The molecule listed as `NC(=O)CC[C@H](CC(=O)NO)C(=O)N[C@@H](Cc1ccccc1)C(=O)NCc1ccccc1` has a reported pIC50 of < 4.70

----------
Target: Low affinity immunoglobulin epsilon Fc receptor (Homo sapiens)
Assay: Tested for inhibition against CD23 (IgE receptor) proteolysis in membranes derived from RPM18866 cells ( a human B-cell line); value ranges from 5-10
Observed property: pIC50
// scale note: pIC50 = -log10(conc_M); give the bare number

For reference, reported pIC50 for `O=C(C[C@H](C(=O)N[C@@H](Cc1ccccc1)C(=O)NCc1ccccc1)C1CCCCC1)NO` stands at 5.30

----------
Biological target: Low affinity immunoglobulin epsilon Fc receptor (Homo sapiens, UniProt P06734)
Sequence (P06734 whole entry): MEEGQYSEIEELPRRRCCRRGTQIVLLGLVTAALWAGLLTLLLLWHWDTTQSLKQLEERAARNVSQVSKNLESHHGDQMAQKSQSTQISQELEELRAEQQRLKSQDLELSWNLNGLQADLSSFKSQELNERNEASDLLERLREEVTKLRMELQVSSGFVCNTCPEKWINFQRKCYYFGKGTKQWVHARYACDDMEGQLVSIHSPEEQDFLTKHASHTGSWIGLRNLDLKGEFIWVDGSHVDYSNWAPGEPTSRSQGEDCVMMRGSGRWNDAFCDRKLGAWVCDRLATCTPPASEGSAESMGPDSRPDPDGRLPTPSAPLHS
Assay: ChEBML_41676
Observed property: IC50
Could you give the number and then its unit, please?

Field IC50 (Low affinity immunoglobulin epsilon Fc receptor (Homo sapiens, UniProt P06734)), entry `O=C(C[C@@H](Cc1ccc2ccccc2c1)C(=O)N[C@@H](Cc1ccccc1)C(=O)NCc1ccccc1)NO` : 1 µM

The recorded IC50 with Low affinity immunoglobulin epsilon Fc receptor (Homo sapiens, UniProt P06734) for `CC(C)SC[C@H](CC(=O)NO)C(=O)N[C@@H](Cc1ccccc1)C(=O)NCc1ccccc1` was 8 µM

These data points were gathered from BindingDB's records for doi:10.1016/s0960-894x(97)10148-2.
